target: acetylcholine receptor; test: SPR, AchR on chip, peptide 10 uM
Binning of Binding affinity (RU) into classes: class 0 = under 60 RU, class 1 = from 60 RU up to 80 RU, class 2 = 80 RU and over

Would you please look over these solved cases?
>>> category("RVYYR [5mer-518]")
"class 2"
>>> category("KGFCR [5mer-29]")
"class 1"
>>> category("RGRLR [5mer-506]")
"class 0"

In: Could you place RRQSR [5mer-322] in its proper category? Many thanks.
Out: class 2

In: Could you place KSVQR [5mer-527] in its proper category? Many thanks.
Out: class 1

Values were extracted from patent US20250011363A1.
